Tested on: TH2 cells
Experiment: Anti-CD3/anti-CD28 stimulated lymph node cells (day 7 post-Nb), IL-5/IL-13 ELISA
Assay type: cell-based, mouse
Conditions: LN cells day 7 post-Nb, anti-CD3 and anti-CD28, 48 hours
OUTCOME MEASURE: capacity to inhibit IL-13 production compared to native Nmb

Before answering, review these 8 worked examples.
H2N-GNLWTGHFM-amide (H-GNLWTGHFM-NH2) [R]: enhanced capacity
H2N-GNLWATHFM-amide (H-GNLWATHFM-NH2): enhanced capacity
H2N-ATGHFM-amide (H-ATGHFM-NH2) [AI]: enhanced capacity
H2N-WATGHF-amide (H-WATGHF-NH2) [AH]: enhanced capacity
H2N-LWATGH-amide (H-LWATGH-NH2) [AG]: enhanced capacity
H2N-GNLWATGH-amide (H-GNLWATGH-NH2) [X]: enhanced capacity
H2N-GNLWATG-amide (H-GNLWATG-NH2) [AA]: enhanced capacity
H2N-WATGHFM-amide (H-WATGHFM-NH2) [AD]: enhanced capacity

Query substance follows.
INPUT: # input substance: H2N-LWATGHFM-amide (H-LWATGHFM-NH2) [Z] ; wanted: its capacity to inhibit IL-13 production compared to native Nmb
OUTPUT: enhanced capacity
